Would you mind telling me the reported inhibition of each entry?
- method: loss of swimming-algae plug formation – whole organism, Chlamydomonas reinhardtii, WT vs cilia-less mutant, absorbance, 96-well, primary screen (AID 463189);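 further: 0% = wild type cc124 cells in DMSO and 100% = ciliumless bld1 mutant cells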
- measurement setup: Chlamydomonas reinhardtii gravitaxis, OD600 absorbance, 2 days; at 10 µM; stronger effect = higher value
The source made the active and inactive calls.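 How the source made its calls: active means inhibition at or above 50% relative to wild type and mutant plate controls; inactive means inhibition below 50%.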

Exercise: Quick one: inhibition of `CCCCc1nc2ccccc2c(=O)n1-c1ccccc1O` ?
Solution: 2.52% (inactive)

Exercise: Continue with O=C1NCN(c2ccccc2)C12CCN(CC1COc3ccccc3O1)CC2 (stereo unspecified)
Solution: 6.88% (inactive)

Exercise: Continue with `Cn1c(O)c(C=NC2CCN(Cc3ccccc3)CC2)c(=O)n(C)c1=O`
Solution: 0.967% (inactive)

Exercise: Continue with `c1ccc(CCCN2CCN(CCOC(c3ccccc3)c3ccccc3)CC2)cc1`
Solution: 20% (inactive)

Exercise: Continue with `COc1ccc2c(c1O)-c1cccc3c1[C@@H](C2)N(C)CC3`
Solution: 6.42% (inactive)

Exercise: Continue with CC(=O)[C@H]1CCC2C3CC[C@H]4C[C@H](O)CC[C@]4(C)C3CC[C@@]21C (stereo partly specified)
Solution: 0.863% (inactive)

Exercise: Continue with Oc1ccc2c3c1O[C@H]1[C@@H](O)CC[C@@]4(O)C(C2)N(CC2CCC2)CCC314 (stereo partly specified)
Solution: 3.28% (inactive)

Exercise: Continue with `COc1ccc2c(c1)[C@@]13CCCC[C@H]1[C@@H](C2)NCC3`
Solution: 4.9% (inactive)

Exercise: Continue with `O=C(O)[C@@H]1CCN1`
Solution: 2.04% (inactive)

Exercise: Continue with `O=c1[nH]c(=O)n(-c2cccc(Cl)c2)c(O)c1C=NCCN1CCCCC1`
Solution: -0.905% (inactive)

Exercise: Continue with `CCOC(=O)[C@]1(C#N)[C@@H]2C=CC(C(C)=O)=CN2[C@@H](C(N)=O)[C@@H]1c1ccsc1`
Solution: 13.7% (inactive)

Exercise: Continue with `O=P(c1ccccc1)(c1ccccc1)N1CCCCC1`
Solution: -7.33% (inactive)

Exercise: Continue with `C=CCOC(=O)C1=C(C)OC(N)=C(C#N)[C@@]12C(=O)N(CC(N)=O)c1ccccc12`
Solution: 1.7% (inactive)

Exercise: Continue with CN1CCC23CCCC[C@H]2C1Cc1ccc(O)cc13 (stereo partly specified)
Solution: -3.02% (inactive)

Exercise: Continue with `N#CC(C#N)=Cc1ccc(O)c(O)c1`
Solution: 1.54% (inactive)

Exercise: Continue with `CCCN(CCC)[C@@H]1CCc2cccc(O)c2C1`
Solution: -6.71% (inactive)

Exercise: Continue with CC(C)CC(NP(=O)(O)O[C@@H]1O[C@@H](C)[C@H](O)[C@@H](O)[C@H]1O)C(=O)NC(Cc1c[nH]c2ccccc12)C(=O)O (stereo partly specified)
Solution: 5.76% (inactive)

Exercise: Continue with COC(=O)C(c1ccccc1)N1CCCCCC1 (stereo unspecified)
Solution: -6.36% (inactive)

Exercise: Continue with Ic1ccccc1CNC1C2CCN(CC2)C1C(c1ccccc1)c1ccccc1 (stereo unspecified)
Solution: 75.8% (active)

Exercise: Continue with `CCC(=NCCN1CCCCC1)c1c(O)n(C)c(=O)n(C)c1=O`
Solution: 18% (inactive)

Exercise: Continue with CC(C)(O)[C@@H]1[C@H]2OC(=O)[C@@H]1[C@]1(O)C[C@H]3O[C@]34C(=O)O[C@H]2[C@]14C (tested in a mixture with another compound)
Solution: -1.93% (inactive)
